- target_under_test: HLA-A*3101 (Homo sapiens, UniProt P04439, A270S/D185E/E176V/E277Q/F33T/G231S/G80R/H175R/I121M/I218V/I322F/K168Q/L300P/L318F/M331R/P217A/Q94H/R138Q/T323A/T345S/T97I/V358M)
- assay_method_text: purified HLA class I binding assay, A*3101
- measurement_parameters: Table IX, HIV A03 super motif peptides; binding value, unit not given
Recorded A*3101 binding information for the following sequences
API note: the answer field is a bare number with no unit suffix.

Sample records with A*3101 binding information:
1. DIQIKELQK | 0.0006
2. WMGYELIIPDK | 0.0009
3. YLAWVPAIIK | 0.0550
4. ASCDKCQLK | 0.0020
5. FTTPDKKIIQK | 0.0010

Now look at this entry.
Field A*3101 binding information (entry GIPHPAGLK ) reads 0.0007

Provenance of the data: patent US20050271676A1
